// data source = paper PMC4893915

- target.entity: ΔL1 TEAD DBD (truncated L1 loop) (human, UniProt P28347 28-104, del52-63)
- method.notes: EMSA
value.kind: pKd
Reminder that pKd means the negative base-10 logarithm of the concentration expressed in mol/L.

Per the record, 1xGT (dsDNA) DNA 1: TTCGATACACTTGTGGAATGTGTTTGATTTGTTAGCCCCG DNA 2: CGGGGCTAACAAATCAAACACATTCCACAAGTGTATCGAA has pKd of 8.10
